Tested on: HEK293
run.description: Cytotoxicity against HEK293 cells assessed as reduction in cell viability incubated for 72 hrs by SRB assay
Format: toxicity, cell-based, Homo sapiens
pEC50: −log10 of the molar value.
reported.metric: pEC50

Report pEC50 for "O=C(N[C@H](Cc1ccccc1)C(=O)Nc1cc(F)ccc1N1CCS(=O)(=O)CC1)c1cccs1" please.
< 4.52

Report pEC50 for "O=C(N[C@H](Cc1ccc(O)cc1)C(=O)Nc1cc(F)ccc1N1CCS(=O)(=O)CC1)c1ccccc1F" please.
< 4.52

Report pEC50 for "O=C(N[C@H](Cc1ccccc1)C(=O)Nc1ccccc1N1CCSCC1)c1ccccc1F" please.
5.20

Report pEC50 for "O=C(N[C@H](Cc1ccccc1)C(=O)Nc1ccccc1N1CC[S+]([O-])CC1)c1ccccc1F" please.
< 4.52

Report pEC50 for "O=C(N[C@H](Cc1ccccc1)C(=O)Nc1cc(F)ccc1N1CCS(=O)(=O)CC1)c1ccccc1F" please.
< 4.52

Report pEC50 for "O=C(N[C@H](Cc1ccccc1)C(=O)Nc1ccccc1N1CC[S+]([O-])CC1)c1cccs1" please.
< 4.52

Report pEC50 for "O=C(N[C@H](Cc1ccccc1)C(=O)Nc1ccccc1N1CCS(=O)(=O)CC1)c1cccs1" please.
< 4.52

Report pEC50 for "O=C(N[C@H](Cc1ccccc1)C(=O)Nc1ccccc1N1CCSCC1)c1cccs1" please.
4.72

====

Tested on: A2780
run.description: Cytotoxicity against human A2780 cells assessed as reduction in cell viability incubated for 72 hrs by SRB assay
Assay type: toxicity, cell-based
reported.metric: pEC50
Friendly reminder that pEC50 comes from taking -log10 of the concentration in mol/L.

// map "O=C(N[C@H](Cc1ccc(O)cc1)C(=O)Nc1cc(F)ccc1N1CCS(=O)(=O)CC1)c1cccs1" to recorded pEC50 (system: A2780)
4.53

// map "O=C(N[C@H](Cc1ccccc1)C(=O)Nc1cc(F)ccc1N1CCS(=O)(=O)CC1)c1cccs1" to recorded pEC50 (system: A2780)
4.62

// map "O=C(N[C@H](Cc1cccs1)C(=O)Nc1ccccc1N1CC[S+]([O-])CC1)c1ccccc1F" to recorded pEC50 (system: A2780)
4.54

// map "O=C(N[C@H](Cc1ccccc1)C(=O)Nc1cc(F)ccc1N1CCS(=O)(=O)CC1)c1ccccc1F" to recorded pEC50 (system: A2780)
4.63

// map "O=C(N[C@H](Cc1ccccc1)C(=O)Nc1cc(F)ccc1N1CCSCC1)c1ccccc1F" to recorded pEC50 (system: A2780)
4.55

// map "O=C(N[C@H](Cc1ccccc1)C(=O)Nc1ccccc1N1CCS(=O)(=O)CC1)c1cccs1" to recorded pEC50 (system: A2780)
4.63

// map "O=C(N[C@H](Cc1cccs1)C(=O)Nc1ccccc1N1CCOCC1)c1cccs1" to recorded pEC50 (system: A2780)
4.53

// map "O=C(N[C@H](Cc1ccccc1)C(=O)Nc1ccccc1N1CCSCC1)c1cccs1" to recorded pEC50 (system: A2780)
4.70

====

Test system: NIH3T3
run.description: Cytotoxicity against mouse NIH3T3 cells assessed as reduction in cell viability incubated for 72 hrs by SRB assay
Format: toxicity, cell-based
conditions: nih3t3
For each entry below, report its EC50 value.
Expressed in µM, but write only the number.

Report EC50 for "O=C(N[C@H](Cc1ccccc1)C(=O)Nc1cc(F)ccc1N1CCSCC1)c1ccccc1F" please.
28.5

Report EC50 for "O=C(N[C@H](Cc1cccs1)C(=O)Nc1ccccc1N1CCOCC1)c1cccs1" please.
29

Report EC50 for "O=C(N[C@H](Cc1ccccc1)C(=O)Nc1cc(F)ccc1N1CCS(=O)(=O)CC1)c1ccccc1F" please.
24.2

Report EC50 for "O=C(N[C@H](Cc1ccccc1)C(=O)Nc1cc(F)ccc1N1CCS(=O)(=O)CC1)c1cccs1" please.
26.9

// provenance: ChEMBL document CHEMBL5344415
